# System: Plasmodium berghei
# assayComment: Screen against P. berghei liver stage (PbLuc), transformed with Luciferase, at 10uM
# Type: functional, HepG2
# experimentalConditions: tested at 10 uM
The campaign covered roughly 69,000 compounds. About 8,600 (12%) showed an effect of 50% or more. For the sample, strong results were picked, then their nearest neighbours and some compounds at random.
Quick rule: INHIBITION of at least 20% means TRUE, below that means FALSE.

{"compound": "O=c1cc(N2CCNCC2)cnn1CCCn1cccn1", "targetDesc": "Plasmodium berghei", "assignedLabel": "TRUE"}
{"compound": "CCOc1c(Br)cc(CNCCc2nnc3n2CCCCC3)cc1OC", "targetDesc": "Plasmodium berghei", "assignedLabel": "TRUE"}
{"compound": "CCC(C)(C)c1cc(-c2c(C)nn(CCO)c2C)c(C#N)c(N)n1", "targetDesc": "Plasmodium berghei", "assignedLabel": "FALSE"}
{"compound": "Cc1c(C(=O)N2CCC(O)(CN(C)C)C2)c2ccccc2n1C (stereo not drawn)", "targetDesc": "Plasmodium berghei", "assignedLabel": "TRUE"}
{"compound": "Cc1cccc(C(=O)N2CCC3(CCN(c4cnn(C)c4)C3=O)C2)n1 (stereo not drawn)", "targetDesc": "Plasmodium berghei", "assignedLabel": "TRUE"}
{"compound": "COCCN1C(=O)[C@@H]2CC[C@H]1CN(c1nccc(C)n1)C2", "targetDesc": "Plasmodium berghei", "assignedLabel": "FALSE"}
{"compound": "CCOc1c(Br)cc(CNC(C)c2nnc3n2CCC3)cc1OC (stereo not drawn)", "targetDesc": "Plasmodium berghei", "assignedLabel": "TRUE"}
{"compound": "O[C@@H]1C[C@H]2CN(Cc3ccsc3)[C@@H](Cc3ccccc3)CN2C1", "targetDesc": "Plasmodium berghei", "assignedLabel": "TRUE"}
{"compound": "Brc1cc(CNCc2nnc3n2CCC3)cs1", "targetDesc": "Plasmodium berghei", "assignedLabel": "FALSE"}
{"compound": "CCN1CCN(C(=O)Cn2nc(C(F)(F)F)c(Br)c2C2CC2)CC1", "targetDesc": "Plasmodium berghei", "assignedLabel": "TRUE"}
{"compound": "CCN(CCC(F)(F)F)C(=O)Nc1cccc(N2CCOCC2)c1", "targetDesc": "Plasmodium berghei", "assignedLabel": "FALSE"}
{"compound": "Cn1cnc2c1C(COCC1CC1)CN(Cc1ccc3c(c1)OCO3)C2 (stereo not drawn)", "targetDesc": "Plasmodium berghei", "assignedLabel": "TRUE"}
{"compound": "CCN(CC1CCCO1)C(=O)Nc1ccc(OC)c(C)c1 (stereo not drawn)", "targetDesc": "Plasmodium berghei", "assignedLabel": "FALSE"}
